Target: ABCB4 WT (Homo sapiens, UniProt P21439)
Sequence (P21439 whole entry): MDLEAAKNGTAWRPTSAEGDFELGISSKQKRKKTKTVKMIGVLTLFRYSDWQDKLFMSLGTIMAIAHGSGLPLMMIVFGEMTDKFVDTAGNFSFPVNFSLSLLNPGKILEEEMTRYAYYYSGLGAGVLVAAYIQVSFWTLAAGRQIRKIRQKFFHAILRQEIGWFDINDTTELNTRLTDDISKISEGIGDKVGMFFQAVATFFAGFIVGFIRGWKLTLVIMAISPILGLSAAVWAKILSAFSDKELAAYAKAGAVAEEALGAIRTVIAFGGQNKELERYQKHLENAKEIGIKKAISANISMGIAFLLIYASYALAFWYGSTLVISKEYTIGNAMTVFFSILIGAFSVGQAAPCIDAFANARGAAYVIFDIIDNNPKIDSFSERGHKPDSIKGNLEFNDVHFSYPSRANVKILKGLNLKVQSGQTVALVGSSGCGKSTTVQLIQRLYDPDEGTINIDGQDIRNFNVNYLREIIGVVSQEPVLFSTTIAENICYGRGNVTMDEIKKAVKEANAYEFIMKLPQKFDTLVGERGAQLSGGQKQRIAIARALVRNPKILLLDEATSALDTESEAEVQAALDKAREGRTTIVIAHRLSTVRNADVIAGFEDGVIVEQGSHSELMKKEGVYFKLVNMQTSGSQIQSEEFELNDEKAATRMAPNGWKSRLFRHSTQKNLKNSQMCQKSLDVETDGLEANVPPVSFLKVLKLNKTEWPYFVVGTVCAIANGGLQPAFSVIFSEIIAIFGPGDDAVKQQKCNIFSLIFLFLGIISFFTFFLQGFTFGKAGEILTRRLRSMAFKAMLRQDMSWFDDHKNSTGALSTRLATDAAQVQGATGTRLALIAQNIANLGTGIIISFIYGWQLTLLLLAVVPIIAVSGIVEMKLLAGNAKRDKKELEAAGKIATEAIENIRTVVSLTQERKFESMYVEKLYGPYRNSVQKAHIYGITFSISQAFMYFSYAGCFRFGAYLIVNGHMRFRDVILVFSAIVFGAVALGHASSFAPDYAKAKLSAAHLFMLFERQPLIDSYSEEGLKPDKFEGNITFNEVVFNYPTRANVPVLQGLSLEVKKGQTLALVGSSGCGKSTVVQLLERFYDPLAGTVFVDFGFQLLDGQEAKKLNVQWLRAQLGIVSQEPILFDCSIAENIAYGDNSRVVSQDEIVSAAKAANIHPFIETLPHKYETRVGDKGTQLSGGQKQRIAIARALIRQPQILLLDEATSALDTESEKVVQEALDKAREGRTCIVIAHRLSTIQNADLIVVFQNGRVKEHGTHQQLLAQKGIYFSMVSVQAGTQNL
Experiment: ABCB4 WT assay: HiBit protein expression
Details: HEK-293 cells stably expressing HiBit-tagged ABCB4 WT; 24 h treatment; top concentration 30 μM; read-out: ABCB4 WT EC50, Emax
pEC50: −log10 of the molar value.
Entries and their pEC50 values follow.

Cc1nc(N2CC3(COC3)C2)nc(C)c1Oc1nc(-c2cncc(C#N)c2)ccc1NS(C)(=O)=O ... > 4.60
Cc1cc(C2CC2)nc(C)c1Oc1nc(-c2cncc(C#N)c2)ccc1S(C)(=N)=O (stereo not shown) ... ≤ 4.60
CNS(=O)(=O)c1ccc(-c2cncc(C#N)c2)nc1Oc1c(C)cc(C(F)F)nc1C1CC1 ... 4.60 to 5.00

Record Cc1cc(C)c(Oc2nc(-c3cncc(N4CC(F)(F)C4)c3)ccc2NS(C)(=O)=O)c(C)n1 . Reported pEC50: > 6.00

Cc1cc(C)c(Oc2nc(-c3cncc(Cl)c3)ccc2S(=O)(=O)N(C)Cc2ccccc2)c(C)c1 has a reported pEC50 of > 4.60

Kindly note the recorded pEC50 for Cc1cc(C2CC2)cc(C)c1Oc1nc(-c2cncc(C#N)c2)ccc1NS(C)(=O)=O , which is 5.00 to 6.00

# pEC50 (compound: Cc1cc(C(F)(F)F)nc(C2CC2)c1Oc1nc(-c2cncc(C#N)c2)ccc1S(=O)(=O)NC1CC1 ) is 5.00 to 6.00

----------
Target: ABCB4 WT (Homo sapiens)
Construct: expressed in transfected cells
Experiment: ABCB4 WT assay: HiBit protein expression
Type: cell-based
Conditions: HEK-293 cells stably expressing HiBit-tagged ABCB4 WT; 24 h treatment; top concentration 30 μM; read-out: ABCB4 WT EC50, Emax
parameter-measured: EC50

Examples from the recorded data:
Cc1cc(C)c(Oc2nc(N3CC4(CCN(C(=O)C5CC5)C4)C3)ccc2NS(C)(=O)=O)c(C)c1 [Compound I-31] ... ≥ 25 µM
Cc1cc(C)c(Oc2nc(-c3cncc(C#N)c3)ccc2N(C)S(=O)(=O)c2cccnc2)c(C2CC2)n1 [Compound I-136] ... < 1 µM
Cc1nc(C2CC2)nc(C2CC2)c1Oc1nc(-c2cncc(C#N)c2)ccc1NS(C)(=O)=O [Compound I-150] ... < 1 µM

Sample Cc1cc(C2CC2)nc(C)c1Oc1nc(-c2cncc(Cl)c2)ccc1NS(=O)(=O)C1COC1 [Compound I-236] ; EC50 observed: < 25 µM

Entry Cc1cc(C)c(Oc2nc(-c3cc(C#N)c[nH]c3=O)ccc2NS(C)(=O)=O)c(C)n1 [Compound I-326] ; EC50 = < 25 µM

Record COCc1cncc(-c2ccc(NS(C)(=O)=O)c(Oc3c(C)cc(C)nc3C)n2)c1 [Compound I-231] , field EC50: 1 to 10 µM

The recorded EC50 for entry Cc1cc(C(F)(F)F)nc(C2CC2)c1Oc1nc(-c2cncc(C#N)c2)ccc1S(=O)(=O)N1CCOCC1 [Compound I-290] equals ≥ 25 µM

----------
Biological target: UniProt:O95255
Sequence (O95255 whole entry): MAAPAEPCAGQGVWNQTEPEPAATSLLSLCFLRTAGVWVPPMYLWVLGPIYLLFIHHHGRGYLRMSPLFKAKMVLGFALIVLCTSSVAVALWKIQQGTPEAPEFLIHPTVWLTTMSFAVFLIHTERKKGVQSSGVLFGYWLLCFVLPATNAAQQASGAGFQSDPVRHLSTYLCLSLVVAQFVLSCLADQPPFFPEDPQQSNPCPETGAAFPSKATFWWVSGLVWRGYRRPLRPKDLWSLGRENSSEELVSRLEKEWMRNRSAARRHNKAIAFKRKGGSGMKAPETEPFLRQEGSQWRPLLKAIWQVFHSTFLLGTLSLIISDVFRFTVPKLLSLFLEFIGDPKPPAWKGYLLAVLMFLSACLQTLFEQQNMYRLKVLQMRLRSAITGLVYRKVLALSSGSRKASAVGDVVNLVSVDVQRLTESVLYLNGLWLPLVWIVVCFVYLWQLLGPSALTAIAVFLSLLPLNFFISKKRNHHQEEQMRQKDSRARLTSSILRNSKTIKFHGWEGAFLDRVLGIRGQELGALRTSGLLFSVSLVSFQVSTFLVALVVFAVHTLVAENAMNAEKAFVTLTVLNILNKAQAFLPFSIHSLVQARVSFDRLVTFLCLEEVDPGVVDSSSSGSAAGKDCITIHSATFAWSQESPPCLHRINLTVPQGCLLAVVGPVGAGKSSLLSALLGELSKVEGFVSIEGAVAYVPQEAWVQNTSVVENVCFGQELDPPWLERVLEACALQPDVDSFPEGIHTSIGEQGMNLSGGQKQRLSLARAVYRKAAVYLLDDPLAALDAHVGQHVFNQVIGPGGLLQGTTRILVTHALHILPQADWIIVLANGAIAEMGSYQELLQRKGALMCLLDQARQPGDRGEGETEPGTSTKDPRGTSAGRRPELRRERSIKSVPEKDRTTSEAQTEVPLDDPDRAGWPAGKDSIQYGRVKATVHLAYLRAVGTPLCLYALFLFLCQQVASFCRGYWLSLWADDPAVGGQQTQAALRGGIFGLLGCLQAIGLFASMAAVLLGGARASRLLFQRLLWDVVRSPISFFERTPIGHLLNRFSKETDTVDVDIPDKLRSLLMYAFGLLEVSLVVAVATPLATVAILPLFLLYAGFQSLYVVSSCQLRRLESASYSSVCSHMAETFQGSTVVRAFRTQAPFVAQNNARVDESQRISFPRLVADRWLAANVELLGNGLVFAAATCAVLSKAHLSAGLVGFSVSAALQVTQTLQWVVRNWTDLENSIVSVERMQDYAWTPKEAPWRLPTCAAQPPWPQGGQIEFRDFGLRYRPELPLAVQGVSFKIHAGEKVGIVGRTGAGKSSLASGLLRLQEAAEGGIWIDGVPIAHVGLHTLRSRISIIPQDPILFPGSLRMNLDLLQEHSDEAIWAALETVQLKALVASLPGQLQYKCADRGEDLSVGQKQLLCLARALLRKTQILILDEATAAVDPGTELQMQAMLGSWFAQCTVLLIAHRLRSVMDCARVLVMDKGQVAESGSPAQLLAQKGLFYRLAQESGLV
Test: ABCC6 WT assay: HiBit protein expression
Conditions: HEK-293 cells transiently expressing HiBit-tagged ABCC6 WT; 24 h treatment; top concentration 20 μM; read-out: ABCC6 WT EC50, Emax
pEC50: −log10 of the molar value.
parameter-measured: pEC50

Cc1nc(N2CC(C#N)C2)nc(C)c1Oc1nc(-c2cncc(C#N)c2)ccc1NS(C)(=O)=O ... > 6.00
Cc1cc(C)c(Oc2nc(-c3cncc(C#N)c3)ccc2S(N)(=O)=O)c(C)c1 ... > 6.00

// Cc1nc(C)c(C(F)(F)F)cc1Oc1nc(-c2cncc(C#N)c2)ccc1NS(C)(=O)=O : pEC50 value = > 6.00
